The following compounds are shown together with reported pIC50 values.
target: VIPR2 (Homo sapiens); assay: BRET-based VIPR2 activation assay (CAMYEL cAMP sensor, CHO cells, VIP background); format: cell-based; details: Table 2; read-out: BRET results (IC50)
// pIC50: -log10(molar conc.)

The examples below pair each entry with its known result.
1. CC(C)c1ccc(S(=O)(=O)NC[C@@H](O)C[C@@H](Cc2ccccc2)C(=O)N[C@H]2c3ccccc3C[C@H]2O)cc1 5.46
2. Cc1ccc(S(=O)(=O)NC[C@@H](O)C[C@@H](Cc2ccccc2)C(=O)N[C@H]2c3ccccc3C[C@H]2O)cc1 5.70
3. COc1ccc(S(=O)(=O)NC[C@@H](O)C[C@@H](Cc2ccccc2)C(=O)N[C@H]2c3ccccc3C[C@H]2O)cc1 5.99
4. N#Cc1ccc(S(=O)(=O)NC[C@@H](O)C[C@@H](Cc2ccccc2)C(=O)N[C@H]2c3ccccc3C[C@H]2O)cc1 5.88
5. CC(=O)c1ccc(S(=O)(=O)NC[C@@H](O)C[C@@H](Cc2ccccc2)C(=O)N[C@H]2c3ccccc3C[C@H]2O)cc1 6.37

Lab note: next compound to report on.
Task item: Please report pIC50 for the following compound: `O=C(N[C@H]1c2ccccc2C[C@H]1O)[C@H](Cc1ccccc1)C[C@H](O)CNS(=O)(=O)c1ccc(C(F)(F)F)cc1`
Reply: 5.63

====

biological target: VIPR2 (Homo sapiens, UniProt P41587); experiment: % Activity: inhibition of VIP-induced cAMP elevation and β-arrestin recruitment (Table 2); type: cell-based; set-up: expressed in transfected cells; host or cells: HEK293 cells transfected with VIPR2 in pCDNA3.1 (as described)
Sequence (P41587 24-438): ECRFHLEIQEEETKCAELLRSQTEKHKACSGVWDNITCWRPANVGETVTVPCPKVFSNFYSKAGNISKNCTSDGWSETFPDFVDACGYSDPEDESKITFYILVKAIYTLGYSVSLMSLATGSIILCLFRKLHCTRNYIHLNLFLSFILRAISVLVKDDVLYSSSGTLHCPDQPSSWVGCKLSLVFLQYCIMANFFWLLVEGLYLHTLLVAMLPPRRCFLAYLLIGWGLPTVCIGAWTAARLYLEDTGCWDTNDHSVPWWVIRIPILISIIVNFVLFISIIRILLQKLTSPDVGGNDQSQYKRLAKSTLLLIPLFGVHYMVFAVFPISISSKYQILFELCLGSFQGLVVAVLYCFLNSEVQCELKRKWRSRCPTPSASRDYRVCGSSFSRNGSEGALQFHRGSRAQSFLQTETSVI
property name: % Activity (%)
Your answer is read as %, so omit the unit and give the number.

Task item: Please report % Activity for the following molecule: `O=C(CCN1C(=O)C=CC1=O)NC[C@@H](O)C[C@@H](Cc1ccccc1)C(=O)N[C@H]1c2ccccc2C[C@H]1O`
Reply: 7.75

====

The following molecules are shown together with reported inhibition at 5 µM values.
biological target: VIPR2 (Homo sapiens, UniProt P41587); assay: Inhibition of VIP-induced cAMP elevation (% Activity cAMP); assay type: cell-based; parameters: expressed in transfected cells; host or cells: HEK293 cells transfected with VIPR2 in pCDNA3.1 (as described); conditions: 5 μM, Batch 1
Your answer is read as %, so omit the unit and give the number.

molecule	experimental system	display unit	measurement
O=C(N[C@H]1c2ccccc2C[C@H]1O)[C@H](Cc1ccccc1)C[C@H](O)CNS(=O)(=O)c1ccc([N+](=O)[O-])cc1 [Compound A27, reference compound]	VIPR2 (Homo sapiens, UniProt P41587)	%	99.1
COc1ccc(S(=O)(=O)NC[C@@H](O)C[C@@H](Cc2ccccc2)C(=O)N[C@H]2c3ccccc3C[C@H]2O)cc1	VIPR2 (Homo sapiens, UniProt P41587)	%	93.8
O=C(Cc1cccc(Cl)c1)NC[C@@H](O)C[C@@H](Cc1ccccc1)C(=O)N[C@H]1c2ccccc2C[C@H]1O	VIPR2 (Homo sapiens, UniProt P41587)	%	26.5

Task item: // output inhibition at 5 µM; input `O=C(CCl)NC[C@@H](O)C[C@@H](Cc1ccccc1)C(=O)N[C@H]1c2ccccc2C[C@H]1O` ; system VIPR2 (Homo sapiens, UniProt P41587)
Reply: 15.6

Task item: // output inhibition at 5 µM; input `O=C(NC[C@@H](O)C[C@@H](Cc1ccccc1)C(=O)N[C@H]1c2ccccc2C[C@H]1O)c1ccc2ccccc2c1` ; system VIPR2 (Homo sapiens, UniProt P41587)
Reply: 23.5

Task item: // output inhibition at 5 µM; input `O=C(N[C@H]1c2ccccc2C[C@H]1O)[C@H](Cc1ccccc1)C[C@H](O)CNS(=O)(=O)c1ccccc1F` ; system VIPR2 (Homo sapiens, UniProt P41587)
Reply: 28.3

Task item: // output inhibition at 5 µM; input `Cc1ccc(S(=O)(=O)NC[C@@H](O)C[C@@H](Cc2ccccc2)C(=O)N[C@H]2c3ccccc3C[C@H]2O)c(C)c1` ; system VIPR2 (Homo sapiens, UniProt P41587)
Reply: 23.3
